- measurementProtocol: Confirmatory qHTS for Identification of Small Molecule Activators of Huntingtin-Antisense Promoter Activity
- conditionContext: HEK293 HTT-AS promoter firefly luciferase reporter, 24 h; series mostly up to 57.5 µM
Active and inactive are the calls of the source. Calls come from the whole dose curve; as a rule, active = well fitted activation curve with a large enough effect; inconclusive = small, poorly fitted or top-dose-only effect; inactive = no such curve, though single readings can be large or run the other way.
Outcomes: active, inactive

{"molecule": "Cn1c(COc2ccccc2C(C)(C)C)nc2ccccc21", "qualitativeLabel": "inactive"}
{"molecule": "COc1ccccc1C(=O)Nc1nnc(SCc2cc(=O)c3ccccc3[nH]2)s1", "qualitativeLabel": "inactive"}
{"molecule": "CCCCCNS(=O)(=O)c1ccc(N2CCCCS2(=O)=O)cc1", "qualitativeLabel": "inactive"}
{"molecule": "CCCN(C(=O)COc1cc(=O)n(CC)c2ccccc12)c1ccc(C(C)C)cc1", "qualitativeLabel": "inactive"}
{"molecule": "NC(=O)Nc1cc(-c2ccc(CN3CCOCC3)cc2)sc1C(N)=O", "qualitativeLabel": "active"}
{"molecule": "Cc1nnc(N2CCC(C(=O)NCCc3ccccc3Cl)CC2)c2nn(-c3ccccc3)c(C)c12", "qualitativeLabel": "inactive"}
{"molecule": "Cc1cccc(N2CCN(S(=O)(=O)c3ccc(F)c(C(=O)Nc4cccc(Cl)c4C)c3)CC2C)c1 (stereo unspecified)", "qualitativeLabel": "inactive"}
{"molecule": "N#CCNC(=O)c1ccc(-c2ccnc(Nc3ccc(N4CCOCC4)cc3)n2)cc1", "qualitativeLabel": "inactive"}
{"molecule": "CSc1cccc(NC(=O)C2CCN(C(=O)c3cnn(-c4ccccc4)c3-n3cccc3)CC2)c1", "qualitativeLabel": "inactive"}
{"molecule": "COc1ccc(NC(=O)Cc2csc(COc3cccc(C)c3)n2)cc1OC", "qualitativeLabel": "inactive"}
{"molecule": "Cc1cccc(NC(c2cccc(Cl)c2)c2ccc3cccnc3c2O)n1 (stereo unspecified)", "qualitativeLabel": "inactive"}
{"molecule": "O=C(Nc1ccc(Br)cc1)c1ccc(Br)c(S(=O)(=O)N2CCCCC2)c1", "qualitativeLabel": "inactive"}
{"molecule": "CCS(=O)(=O)c1oc(-c2ccc(F)cc2)nc1S(=O)(=O)c1ccc(Br)cc1", "qualitativeLabel": "inactive"}
{"molecule": "CCCc1cc(N2CCN(c3cccc(C)c3C)CC2)n2cnnc2n1", "qualitativeLabel": "inactive"}
{"molecule": "CC(=O)Nc1cccc(NC(=O)Cc2csc(COc3cccc(C)c3)n2)c1", "qualitativeLabel": "inactive"}
{"molecule": "CCCC(=O)c1ccc(OC(=O)c2c(-c3ccccc3Cl)noc2C)cc1", "qualitativeLabel": "inactive"}
{"molecule": "Cc1cccc(S(=O)(=O)Nc2cccc(-c3ccc(N4CCCCC4)nn3)c2)c1", "qualitativeLabel": "active"}
{"molecule": "COc1ccccc1CCNC(=O)c1ccc(-c2nc(CSc3ccc(C)cc3)c(C)o2)cc1", "qualitativeLabel": "inactive"}
{"molecule": "COc1ccc(Nc2sc(C(=O)c3ccccc3)c(N)c2C(=O)Nc2cc(C)ccc2C)c(OC)c1", "qualitativeLabel": "inactive"}
{"molecule": "Fc1ccc(N2CCN(c3ncnc4c3nc3n4CCCCC3)CC2)cc1", "qualitativeLabel": "inactive"}
{"molecule": "O=C(C1CCC(CNS(=O)(=O)c2cccs2)CC1)N1CCN(c2ccc(Cl)cc2)CC1 (stereo unspecified)", "qualitativeLabel": "inactive"}
{"molecule": "CCc1ccc(CNC(=O)Cn2ccc3cc(S(=O)(=O)N4CCCCCC4)ccc32)cc1", "qualitativeLabel": "inactive"}
{"molecule": "Cc1cccc(NC(=O)c2cnn(-c3ccccc3)c2-n2cccc2)c1C", "qualitativeLabel": "inactive"}
{"molecule": "CCCS(=O)(=O)NCCc1sc2nc(-c3ccc(F)cc3)nn2c1C", "qualitativeLabel": "inactive"}
{"molecule": "O=C(NCCSc1c(-c2ccccc2)[nH]c2ccccc12)c1ccc(S(=O)(=O)N2CCOCC2)cc1", "qualitativeLabel": "inactive"}
{"molecule": "COc1ccc(N2CCN(C(CNC(=O)C(=O)NCCc3ccccc3)c3cccnc3)CC2)cc1 (stereo unspecified)", "qualitativeLabel": "inactive"}
{"molecule": "COc1ccc(N2CCN(Cc3nc4c(c(=O)n(C)c(=O)n4C)n3C(C)C)CC2)cc1", "qualitativeLabel": "inactive"}
{"molecule": "CCOc1ccc(N(Cc2ccccc2)C(=O)c2nc(SC)ncc2Cl)cc1", "qualitativeLabel": "inactive"}
{"molecule": "CCc1ccc(NC(=O)c2ccc(F)c(S(=O)(=O)N(C)C3CCCCC3)c2)cc1", "qualitativeLabel": "inactive"}
{"molecule": "O=C(c1ccc2c(c1)CCN2S(=O)(=O)c1ccc(Cl)cc1)N1CCN(c2ccc(F)cc2)CC1", "qualitativeLabel": "inactive"}
{"molecule": "CC(=O)Nc1cccc(NC(=O)CSc2nccn2Cc2ccccc2)c1", "qualitativeLabel": "inactive"}
{"molecule": "CC(C)Oc1ccc(CNC(=O)C2CCN(C(=O)N3CCOc4ccc(Cl)cc43)CC2)cc1", "qualitativeLabel": "inactive"}
{"molecule": "COC(=O)c1c(C)oc2ccc(N(C(=O)c3ccncc3)S(=O)(=O)c3ccc(OC)cc3)cc12", "qualitativeLabel": "inactive"}
{"molecule": "Cc1ccccc1Cn1c(=O)n(Cc2ccco2)c(=O)c2oc3ccccc3c21", "qualitativeLabel": "inactive"}
{"molecule": "Cc1ccc(S(=O)(=O)n2nc(-c3ccccc3)nc2NCc2ccccc2Cl)cc1", "qualitativeLabel": "inactive"}
{"molecule": "CC(=O)Nc1ccc(S(=O)(=O)Nc2cc(-c3cn4ccccc4n3)ccc2C)cc1", "qualitativeLabel": "active"}
{"molecule": "Cc1cccc(C(=O)Nc2nc(-c3nnn(-c4cc(F)ccc4F)c3C)ns2)c1", "qualitativeLabel": "inactive"}
{"molecule": "COc1ccc(CNC(=O)c2cccc(N3CCCS3(=O)=O)c2)cc1OC", "qualitativeLabel": "inactive"}
{"molecule": "Cc1cc(C)c(S(=O)(=O)NCCc2sc3nc(-c4ccc(F)cc4)nn3c2C)c(C)c1", "qualitativeLabel": "inactive"}
{"molecule": "CC(C)[C@H](C(=O)Nc1ccc(C(=O)NO)cc1)c1ccccc1", "qualitativeLabel": "active"}
{"molecule": "COc1ccc(-c2noc(N3CCN(c4cccc(Cl)c4)CC3)n2)cc1OC", "qualitativeLabel": "inactive"}
